target: hMC3-R (human) (UniProt P41968); assay: competition with 0.4 nM 125I-NDP-alpha-MSH on hMC3-R membranes, metallopeptide at 1 µM
Sequence (P41968 whole entry): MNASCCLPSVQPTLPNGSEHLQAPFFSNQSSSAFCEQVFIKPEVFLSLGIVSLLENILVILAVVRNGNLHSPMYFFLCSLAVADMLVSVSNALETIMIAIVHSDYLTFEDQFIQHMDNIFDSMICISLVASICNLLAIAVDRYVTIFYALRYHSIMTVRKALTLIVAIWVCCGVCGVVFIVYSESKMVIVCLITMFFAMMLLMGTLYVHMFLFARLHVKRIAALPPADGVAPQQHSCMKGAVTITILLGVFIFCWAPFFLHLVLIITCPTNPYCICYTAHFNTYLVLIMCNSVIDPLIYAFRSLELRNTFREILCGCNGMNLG
Square brackets hold non-standard residues; d marks the D form. Nle = CCCC[C@H](N)C(=O)O
VALUE_KIND: % Inhibition at 1 µM

These recorded examples may help you get a feel for the data.
# BINDER, % Inhibition at 1 µM
data = [
    ("Ac-[Nle]AH[dF]CRW-NH2 (bridge (positions not given here) via ReOCl3(PPh3)2; also: oxorhenium(V) metal complex) [Re-complexed Ac-Nle-Ala-His-D-Phe-Cys-Arg-Trp-NH2]", "15%"),
    ("Ac-[Nle]ACH[dF]RW-NH2 (bridge (positions not given here) via ReOCl3(PPh3)2; also: oxorhenium(V) N3S1 metal chelate (X-X-Cys)) [Re-complexed Ac-Nle-Ala-Cys-His-D-Phe-Arg-Trp-NH2]", "47%"),
    ("Ac-[Nle]AHC[dF]RW-NH2 (bridge (positions not given here) via ReOCl3(PPh3)2; also: oxorhenium(V) metal complex) [Re-complexed Ac-Nle-Ala-His-Cys-D-Phe-Arg-Trp-NH2]", "9%"),
]

# ---- query binder ----
Q) Supply measured % Inhibition at 1 µM of Ac-[Nle]AH[dF]RWC-NH2 (bridge (positions not given here) via ReOCl3(PPh3)2; also: oxorhenium(V) metal complex) [Re-complexed Ac-Nle-Ala-His-D-Phe-Arg-Trp-Cys-NH2] in your reply.
A) 70%
